# Tested on: HS 578T breast
# assay notes: NCI tumour cell line growth inhibition, 48 h
experimental endpoint: TGI (µM)
The response must be a number in µM with no trailing unit.

COc1ccccc1C#C/C=C\C#Cc1ccccc1C#N | 65.4
CCCCCCCCCCCCCCCCn1cc[n+](C)c1 | 1.75
c1ccc(/C(=N\Nc2nc3ccccc3[nH]2)c2ccccn2)cc1 | 51.7
FC(F)(F)c1ccc2c(-c3cc[nH]c3)ccnc2c1 | 56.4
CC(C)[C@@]12C[C@@H](OC(=O)C3CO3)[C@@](C)(O1)[C@@H]1CC[C@@H](C)[C@H]1[C@@H]2OC(=O)/C=C/c1ccccc1 (stereo partly specified) | 3.11

# TGI (compound: O=C1Nc2cccc(Cl)c2/C1=C\c1cccnc1 ) is 91.9

Sample COC(=O)CCc1n(Cc2ccc3ccccc3c2)c2ccccc2[n+]1Cc1ccc2ccccc2c1 ; TGI observed: 3.47

For record Cc1cc(C)c2c(=O)n(CC(O)CN(Cc3ccccc3)CC(O)Cn3sc4nc(C)cc(C)c4c3=O)sc2n1 (stereo unspecified) the listed TGI is 40.4

TGI for COc1cc(CSc2nc3ccc(Cl)cc3c(=O)n2Cc2ccccc2)cc(OC)c1OC is 14.5

The measurements presented in this section are drawn from PubChem BioAssay (NCI).
